Biological target: Arginase-2, mitochondrial (Homo sapiens)
Sequence (whole entry): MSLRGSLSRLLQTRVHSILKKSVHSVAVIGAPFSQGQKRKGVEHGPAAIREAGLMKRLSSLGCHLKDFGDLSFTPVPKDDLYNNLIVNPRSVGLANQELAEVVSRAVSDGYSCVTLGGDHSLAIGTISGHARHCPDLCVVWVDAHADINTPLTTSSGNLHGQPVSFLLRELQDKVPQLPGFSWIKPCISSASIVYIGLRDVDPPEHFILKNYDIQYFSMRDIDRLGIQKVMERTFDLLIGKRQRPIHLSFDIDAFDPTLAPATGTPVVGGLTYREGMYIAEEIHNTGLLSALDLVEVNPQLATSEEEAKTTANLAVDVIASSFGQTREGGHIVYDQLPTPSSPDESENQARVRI
Assay: in vitro enzyme assay to detect the production of urea directly proportional to the activity of Arginase II
Assay type: functional
Design: scale not given: direction of the effect not stated beside the values
Details: 33.3 µM
Endpoint: Percent Effect
Respond with the figure and its unit, in that order.

Dear colleague, could you please provide Percent Effect for the molecules listed below?
1. COc1ccc(C2(NC(=O)CCn3cncn3)CCCCC2)cc1
2. Cc1nn(C(C)C)c(C)c1NC(=O)c1ccncc1
3. O=C(Cc1cccc(F)c1)NCCNCc1cccc(O)c1
4. Cc1nc2c(c(NC3CC3)n1)CCN(C(=O)C(C)(C)O)CC2

1. 1.62%
2. 0.399%
3. 3.56%
4. -0.319%

Dear colleague, could you please provide Percent Effect for the molecules listed below?
1. CC(=O)NC(C)CC(=O)NCc1cccnc1Oc1ccccc1C (stereo unspecified)
2. O=C(Cc1ccc2c(c1)OCCO2)N1CCCC(n2ccnc2)C1 (stereo unspecified)

1: 6.18%; 2: -3.58%

----------
Can you tell me Percent Effect for the items I'm about to list?
target: Chromo domain-containing protein 1 (Saccharomyces cerevisiae (strain ATCC 204508 / S288c) (Baker's yeast)) (UniProt P32657); experiment: ScCHD-1 Enzyme Inhibition Assay; format: functional; parameters: scale not given: in the data most compounds retested in dose-response had high values; details: 30 µM
Sequence (P32657 whole entry, the tested form may be a part): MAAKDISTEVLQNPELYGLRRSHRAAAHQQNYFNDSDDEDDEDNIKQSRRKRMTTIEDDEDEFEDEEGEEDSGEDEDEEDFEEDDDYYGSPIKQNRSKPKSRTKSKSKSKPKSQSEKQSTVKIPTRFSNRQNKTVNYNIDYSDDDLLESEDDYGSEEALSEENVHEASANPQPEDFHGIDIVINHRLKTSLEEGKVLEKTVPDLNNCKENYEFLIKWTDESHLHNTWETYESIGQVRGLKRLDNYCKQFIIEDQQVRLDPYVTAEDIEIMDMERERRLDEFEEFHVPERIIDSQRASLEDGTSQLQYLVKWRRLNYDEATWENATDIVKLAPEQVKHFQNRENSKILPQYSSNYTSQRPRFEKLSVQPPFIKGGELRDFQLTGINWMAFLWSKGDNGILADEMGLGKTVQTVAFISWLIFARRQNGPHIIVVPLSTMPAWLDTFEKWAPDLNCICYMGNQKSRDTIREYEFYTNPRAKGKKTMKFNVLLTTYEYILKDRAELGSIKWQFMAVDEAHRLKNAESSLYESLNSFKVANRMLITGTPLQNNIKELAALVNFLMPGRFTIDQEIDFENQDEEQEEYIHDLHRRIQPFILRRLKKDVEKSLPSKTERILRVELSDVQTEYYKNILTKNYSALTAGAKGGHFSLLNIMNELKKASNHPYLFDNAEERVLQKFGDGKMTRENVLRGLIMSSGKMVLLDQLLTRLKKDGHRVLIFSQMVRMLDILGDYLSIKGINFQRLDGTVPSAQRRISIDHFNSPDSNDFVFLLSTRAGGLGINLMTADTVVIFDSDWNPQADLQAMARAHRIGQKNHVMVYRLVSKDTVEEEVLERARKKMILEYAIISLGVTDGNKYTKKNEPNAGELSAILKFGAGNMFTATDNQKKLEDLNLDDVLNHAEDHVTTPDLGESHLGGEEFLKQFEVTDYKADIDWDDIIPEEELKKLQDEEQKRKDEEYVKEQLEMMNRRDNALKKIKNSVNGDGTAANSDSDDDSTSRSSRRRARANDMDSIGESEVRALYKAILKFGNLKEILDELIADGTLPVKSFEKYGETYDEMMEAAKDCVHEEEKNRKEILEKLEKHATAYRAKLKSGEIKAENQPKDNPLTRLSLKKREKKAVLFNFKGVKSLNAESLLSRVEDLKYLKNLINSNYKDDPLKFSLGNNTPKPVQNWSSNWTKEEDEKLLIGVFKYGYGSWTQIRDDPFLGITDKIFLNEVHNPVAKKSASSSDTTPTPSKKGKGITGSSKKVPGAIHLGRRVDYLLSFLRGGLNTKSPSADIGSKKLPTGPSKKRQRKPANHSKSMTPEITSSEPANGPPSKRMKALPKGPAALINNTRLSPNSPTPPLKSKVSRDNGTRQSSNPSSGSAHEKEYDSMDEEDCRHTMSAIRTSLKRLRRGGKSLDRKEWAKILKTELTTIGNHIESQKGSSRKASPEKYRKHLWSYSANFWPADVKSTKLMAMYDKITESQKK
Answers are plain numbers, in %.

Here's what some known entries look like.
{"Compound": "CSc1ccc(NC(=O)Nc2ccc3c(c2)N(S(C)(=O)=O)CC3)cc1", "Percent Effect (%)": -6.55}
{"Compound": "CC(=O)Nc1nc(C(=O)N2CCCC2Cn2cc(C)cn2)cs1 (centres undefined)", "Percent Effect (%)": -19.2}
{"Compound": "CN(CC(N)=O)S(=O)(=O)c1ccc(F)cc1Cl", "Percent Effect (%)": -3.16}
{"Compound": "O=S(=O)(Cc1ccccc1)N1CCCn2cnc(CN3CCCC3)c2C1", "Percent Effect (%)": -6.67}
{"Compound": "CNC(=O)CCNC(=O)c1cccc(Cn2nc(C)cc2C)c1", "Percent Effect (%)": -5.17}

Dear colleague, could you please provide Percent Effect for the compounds listed below?
1. COc1cc(C(=O)NC(CC(=O)O)c2cccs2)cc(Cl)c1OC (centres undefined)
2. Cc1ccc(-c2nc(CN3CCC(C(=O)N(C)C)CC3)cs2)o1
3. Cc1noc(C(C)C)c1C(=O)NCC(c1cccc(F)c1)N(C)C (centres undefined)
4. CN1CC2(COCCN(C(=O)c3ccco3)C2)OCC1=O (centres undefined)
5. Cn1cccc1CNC(=O)CCCc1nnc2ccccn12
6. Cc1nc(C)n(CC2CCCN2Cc2nc(-c3cccs3)no2)n1 (centres undefined)
7. Cc1ccc(C(=O)CCC(=O)N2CCC(c3nncn3C)CC2)cc1

1: -25.4; 2: -29.5; 3: 2.02; 4: -2.77; 5: -6.43; 6: 1.98; 7: -1.85

Dear colleague, could you please provide Percent Effect for the compounds listed below?
1. O=C(CCc1cc2n(n1)CCCN(Cc1ccccc1F)C2)NC1CC1
2. O=C(N1CCOCC1)[C@@]12CCO[C@@H]1CCN(CCN1CCCCC1)C2
3. Cn1cc(-c2nc(CN3CCN(CCO)CC3)cs2)cn1

[-4.12, -11.6, -10.9]

Dear colleague, could you please provide Percent Effect for the compounds listed below?
1. Cn1ccnc1SCc1nc(C(C)(C)NC(=O)OC(C)(C)C)no1
2. CC(C)n1c(=O)nc2n1C(=O)N(c1ccccc1)C2
3. Cc1ccc(C(=O)N2CCN(Cc3nc(C(C)C)no3)CC2)c(=O)[nH]1
4. O=C(Cc1ccsc1)N1CCCC(c2n[nH]c3nccnc23)C1 (centres undefined)

1. -9.46
2. -9.74
3. 7.95
4. -4.76

Dear colleague, could you please provide Percent Effect for the compounds listed below?
1. Cc1ccc2c(ccn2CCC(=O)NC[C@@H]2CCCN3CCCC[C@H]23)c1
2. CC1CCc2nc(O)c(C(=O)NCCN(C)C)cc2C1 (centres undefined)
3. O=C1COC2(CCN(Cc3cccs3)CC2)CN1c1ccccc1
4. O=C1[C@H]2CN(Cc3nccs3)C[C@H]2CN1c1ccsc1

1. -4.06
2. -5.39
3. -0.651
4. -0.738

Identify the reported Percent Effect for the following entry. CCn1cc2c(n1)CN(Cc1ccoc1)CC2COCC1CC1 (centres undefined)
-4.61

----------
target: Sialic acid-binding Ig-like lectin 9 (Homo sapiens) (UniProt Q9Y336); test: Hs-Siglec9 ALPHAscreen SOP 20170721; parameters: scale not given: direction of the effect not stated beside the values; conditions: 10 µM
Sequence (Q9Y336 whole entry): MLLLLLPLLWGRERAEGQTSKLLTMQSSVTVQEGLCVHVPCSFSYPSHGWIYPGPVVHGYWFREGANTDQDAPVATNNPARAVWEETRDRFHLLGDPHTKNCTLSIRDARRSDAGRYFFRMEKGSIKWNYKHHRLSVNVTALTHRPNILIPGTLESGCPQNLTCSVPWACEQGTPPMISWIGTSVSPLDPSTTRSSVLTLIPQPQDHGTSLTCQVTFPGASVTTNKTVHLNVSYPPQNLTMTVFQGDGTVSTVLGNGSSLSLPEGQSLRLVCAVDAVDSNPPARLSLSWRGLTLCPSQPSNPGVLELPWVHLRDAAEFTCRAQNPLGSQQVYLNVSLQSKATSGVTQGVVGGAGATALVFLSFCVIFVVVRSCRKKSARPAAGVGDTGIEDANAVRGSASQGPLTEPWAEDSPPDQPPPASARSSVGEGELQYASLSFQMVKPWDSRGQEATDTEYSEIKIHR
Endpoint: Percent Effect (%)
Numbers only, in %.

{"Compound": "CC(C)OCCCNC(=O)CN1CCC(N2CCN(C)C2=O)CC1", "Target under test": "Sialic acid-binding Ig-like lectin 9 (Homo sapiens) (UniProt Q9Y336)", "Percent Effect [%]": 10.6}
{"Compound": "CN(C(=O)NCCCN1CCCC1)C1CCN(c2ccccc2)C1=O (stereo unspecified)", "Target under test": "Sialic acid-binding Ig-like lectin 9 (Homo sapiens) (UniProt Q9Y336)", "Percent Effect [%]": -4.7}
{"Compound": "O=C(CCNC(=O)C1CCCC1)NCc1ccccc1Cn1cncn1", "Target under test": "Sialic acid-binding Ig-like lectin 9 (Homo sapiens) (UniProt Q9Y336)", "Percent Effect [%]": -9.83}
{"Compound": "Cc1cc(C)n(C2CN(Cc3noc(-c4ccccc4)n3)C2)n1", "Target under test": "Sialic acid-binding Ig-like lectin 9 (Homo sapiens) (UniProt Q9Y336)", "Percent Effect [%]": 3.24}
{"Compound": "CN(C)c1cc(CNC(=O)c2ccc(F)cc2F)ccn1", "Target under test": "Sialic acid-binding Ig-like lectin 9 (Homo sapiens) (UniProt Q9Y336)", "Percent Effect [%]": 10.4}

Dear colleague, could you please provide Percent Effect for the compounds listed below?
1. O=C(N1CCOCC1)[C@@]12CCO[C@@H]1CCN(CC1CCCCC1)C2
2. CC(=O)Nc1ccc(-n2ccc3nc(N4CCCC4)ncc3c2=O)cc1

-2.81
1.82

Dear colleague, could you please provide Percent Effect for the compounds listed below?
1. Cc1cccc(C2(C(=O)NCCCn3cccn3)CC2)c1
2. CC(NC(=O)NCCCn1cccn1)c1ccc2c(c1)NC(=O)CO2 (stereo unspecified)
3. NS(=O)(=O)c1ccc(NC(=O)CSc2ccc3c(c2)CCC3)cc1
4. CCOC[C@@H]1CCC[C@@]12CN(Cc1nccs1)CCO2

1: 14.6; 2: -5.5; 3: -4.31; 4: -5.32

----------
Can you tell me Percent Effect for the items I'm about to list?
molecular target: Arginase-2, mitochondrial (Homo sapiens); experiment: in vitro enzyme assay to detect the production of urea directly proportional to the activity of Arginase II; format: functional; set-up: scale not given: in the data most compounds retested in dose-response had high values; details: 33.3 µM
One number for each entry, in %.

Here's what some known entries look like.
{"Compound": "CC(C)N1CCC(Cc2cncc(-c3ccccc3C(=O)O)n2)CC1", "Endpoint": "Percent Effect", "Value reported": 0.699}
{"Compound": "CNS(=O)(=O)c1cccc(C(C)NCc2cccc(OC)c2)c1 (configuration not stated)", "Endpoint": "Percent Effect", "Value reported": -0.417}
{"Compound": "c1ccc(C[C@H]2[C@H](N3CCOCC3)CCN2Cc2cccnc2)cc1", "Endpoint": "Percent Effect", "Value reported": -56.1}
{"Compound": "O=C(Cc1ccsc1)N1CCCC(c2n[nH]c3nccnc23)C1 (configuration not stated)", "Endpoint": "Percent Effect", "Value reported": -1.16}
{"Compound": "NC(=O)c1cccc(CC2CCN(C(=O)CCCN3CCOCC3)C2)c1 (configuration not stated)", "Endpoint": "Percent Effect", "Value reported": -2.27}
{"Compound": "CC(C(=O)Nc1ccc(N2CCCC2)nc1)n1cncn1 (configuration not stated)", "Endpoint": "Percent Effect", "Value reported": -9.62}
{"Compound": "CNS(=O)(=O)c1cccc(CNc2ccc(C(F)(F)F)nn2)c1", "Endpoint": "Percent Effect", "Value reported": 30.9}
{"Compound": "CC(C)Nc1ncnc2c1CCN(C(=O)c1ccncc1F)CC2", "Endpoint": "Percent Effect", "Value reported": -2.87}
{"Compound": "COc1ccc(C2SC(C)=Nc3c2c(=O)[nH]n3C2CCCCC2)cc1O (configuration not stated)", "Endpoint": "Percent Effect", "Value reported": -25.2}
{"Compound": "Cc1ccc(CNC2CCCc3c2cnn3C)s1 (configuration not stated)", "Endpoint": "Percent Effect", "Value reported": 0.21}

Dear colleague, could you please provide Percent Effect for the compounds listed below?
1. Cc1scc(C(=O)N2CCC3(CCCN(C)C3=O)C2)c1-c1ccccc1 (configuration not stated)
2. CS(=O)(=O)CCC(=O)NC1(c2cccc(Br)c2)CC1
3. CCn1cnnc1CNC(=O)N1CCN(c2cccs2)CC1
4. N#Cc1ncn(CC(=O)Nc2cc(Cl)ccc2F)n1
5. CC(C)(CNC(=O)CCOc1cccc(F)c1)C(N)=O

[1.91, 1.43, 1.78, -4.79, 3.06]

Cited source for all entries: ChEMBL document CHEMBL3988442
